molecular target: human CYP11B2 (Homo sapiens); construct: expressed in transfected cells; host or cells: V79 cells (clone V79-hCYP11B2-CLE9); assay: V79-Human-CYP11B2 cell assay, modified protocol (600,000 cells/mL); format: cell-based; settings: 0.30 μl inhibitor
For each of the compounds below, state its pIC50.
Numbers only, as −log10 of the molar value.

Before answering, review these 4 worked examples.
COc1c(C)cncc1-c1cc2c(cc1F)-n1c(C)nnc1CC2 = 7.49
Cc1nnc2n1-c1c(Cl)cc(-c3cnccc3C3CC3)cc1CC2 = 7.32
CCc1c(F)cncc1-c1cc(Cl)c2c(c1)CCc1nnc(C)n1-2 = 8.15
Cc1nnc2n1-c1c(Cl)cc(-c3cnccc3C(F)(F)F)cc1CC2 = 7.66

Next up:
Request: Recorded pIC50 for Cc1nnc2n1-c1cc(Cl)c(-c3cncc4ccccc34)cc1CC2 , please?
Response: 7.77

====

Target: human CYP11B1 (Homo sapiens)
Construct: expressed in transfected cells; host or cells: V79MZh11B1 cells
Sequence (P15538 25-503): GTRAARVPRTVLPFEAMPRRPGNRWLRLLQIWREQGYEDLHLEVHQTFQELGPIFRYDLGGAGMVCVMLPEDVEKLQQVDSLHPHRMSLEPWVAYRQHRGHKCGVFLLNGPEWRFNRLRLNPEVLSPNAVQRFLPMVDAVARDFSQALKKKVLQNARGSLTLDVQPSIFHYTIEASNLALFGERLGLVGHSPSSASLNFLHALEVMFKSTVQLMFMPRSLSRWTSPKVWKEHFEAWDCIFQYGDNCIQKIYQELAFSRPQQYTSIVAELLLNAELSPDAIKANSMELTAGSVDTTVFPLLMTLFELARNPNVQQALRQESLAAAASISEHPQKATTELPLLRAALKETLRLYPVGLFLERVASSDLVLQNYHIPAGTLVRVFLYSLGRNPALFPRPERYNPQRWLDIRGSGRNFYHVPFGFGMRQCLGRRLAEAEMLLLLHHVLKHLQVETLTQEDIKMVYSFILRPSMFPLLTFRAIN
Assay: V79MZh11B1 cell assay, [3H]-deoxycorticosterone, HPLC radioflow detection
Assay type: cell-based
Settings: V79MZh11B1 cells, 100 nM deoxycorticosterone, 25 min, read-out: V79 Human CYP11B1 IC50
pIC50: −log10 of the molar value.
Label Yes when pIC50 >= 5; otherwise No.

Solved cases below.
Fc1cc(-c2cccnc2)cc2c1-n1cnnc1CC2 = No
Cc1nnc2n1-c1c(F)cc(-c3cccnc3)cc1CC2 = No
CCc1c(F)cncc1-c1cc2c(c(F)c1F)-n1c(C)nnc1CC2 = No
Cc1nnc2n1-c1c(F)cc(-c3cncc(F)c3)cc1CC2 = No
Cc1nnc2n1-c1c(F)cc(-c3cncc(C(F)(F)F)c3)cc1CC2 = Yes
CCc1c(F)cncc1-c1cc(F)c2c(c1)CCc1nnc(C)n1-2 = Yes

Request: Record CC(=O)c1cncc(-c2cc(F)c3c(c2)CCc2nnc(C)n2-3)c1 ; criterion: pIC50 no lower than 5. Met?
Response: Yes

Request: Record Cc1nnc2n1-c1c(F)cc(-c3cncc(-c4ccccc4)c3)cc1CC2 ; criterion: pIC50 no lower than 5. Met?
Response: Yes

====

For each of the compounds below, state its pIC50.
molecular target: human CYP11B1 (Homo sapiens); construct: expressed in transfected cells; host or cells: V79MZh11B1 cells; experiment: V79-Human-CYP11B1 cell assay, modified protocol (280,000 cells/mL); format: cell-based; details: 0.30 μl inhibitor
One number for each entry, as −log10 of the molar value.

Cc1nnc2n1-c1c(Cl)cc(-c3cnccc3C3CC3)cc1CC2 = 5.16

Request: Recorded pIC50 for CCc1c(F)cncc1-c1cc(Cl)c2c(c1)CCc1nnc(C)n1-2 , please?
Response: 5.50

====

For each of the compounds below, state its IC50.
Molecular target: human CYP11B1 (Homo sapiens, UniProt P15538)
Construct: expressed in transfected cells; host or cells: V79MZh11B1 cells
Sequence (P15538 25-503): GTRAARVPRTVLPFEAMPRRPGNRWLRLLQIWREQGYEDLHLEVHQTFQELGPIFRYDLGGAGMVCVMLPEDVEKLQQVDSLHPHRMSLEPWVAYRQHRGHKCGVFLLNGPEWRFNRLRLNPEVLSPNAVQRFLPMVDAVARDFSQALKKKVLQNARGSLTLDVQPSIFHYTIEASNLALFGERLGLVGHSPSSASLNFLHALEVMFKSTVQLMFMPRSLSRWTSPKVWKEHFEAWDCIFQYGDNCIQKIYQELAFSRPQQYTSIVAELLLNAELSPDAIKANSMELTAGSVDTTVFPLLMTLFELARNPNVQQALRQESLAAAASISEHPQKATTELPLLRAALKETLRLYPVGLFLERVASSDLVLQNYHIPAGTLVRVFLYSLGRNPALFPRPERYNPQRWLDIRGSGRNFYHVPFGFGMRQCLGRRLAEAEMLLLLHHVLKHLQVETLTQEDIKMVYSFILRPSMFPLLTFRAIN
Assay: V79-Human-CYP11B1 cell assay (cortisol HTRF)
Assay type: cell-based
Conditions: V79-hCYP11B1 cells, 250 nM 11-deoxycortisol, 3 hours
Numbers only, in nM.

Before answering, review these 3 worked examples.
Cc1c(-c2cc(Cl)c3c(c2)CCc2nnc(C)n2-3)cncc1C(C)(O)C(F)(F)F (stereo not shown) [Example 37] = 69
Cc1c(-c2cc(Cl)c3c(c2)CCc2nnc(C)n2-3)cncc1C(C)(O)C(F)(F)F (stereo not shown) [Example 38] = 527
COC(=O)C1(c2cncc(-c3ccc4c(c3)CCc3nncn3-4)c2)CC1 = 157

Next up:
Request: Recorded IC50 for Cc1c(F)cncc1-c1cc(F)c2c(c1)CCc1nncn1-2 , please?
Response: 1500

====

target: human CYP11B2 (Homo sapiens, UniProt P19099); construct: expressed in transfected cells; host or cells: V79 cells (clone V79-hCYP11B2-CLE9); assay: V79MZh11B2 cell assay, [3H]-deoxycorticosterone, HPLC radioflow detection; assay type: cell-based; conditions: V79MZh11B2 cells, 100 nM deoxycorticosterone, 50 min, read-out: V79 Human CYP11B2 IC50
Sequence (P19099 25-503): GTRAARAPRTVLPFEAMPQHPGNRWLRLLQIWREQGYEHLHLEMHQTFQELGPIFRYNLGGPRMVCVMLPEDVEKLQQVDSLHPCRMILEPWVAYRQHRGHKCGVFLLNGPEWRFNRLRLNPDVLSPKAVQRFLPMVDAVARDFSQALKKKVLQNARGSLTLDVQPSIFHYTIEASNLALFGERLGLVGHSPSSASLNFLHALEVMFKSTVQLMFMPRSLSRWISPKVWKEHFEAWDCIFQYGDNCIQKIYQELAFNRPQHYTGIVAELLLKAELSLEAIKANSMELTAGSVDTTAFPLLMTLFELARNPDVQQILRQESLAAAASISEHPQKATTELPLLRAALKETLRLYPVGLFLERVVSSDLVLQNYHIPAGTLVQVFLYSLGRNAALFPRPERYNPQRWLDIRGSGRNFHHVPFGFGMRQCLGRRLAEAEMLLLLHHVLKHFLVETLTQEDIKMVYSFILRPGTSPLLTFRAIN
METRIC: IC50 (nM)
Give bare numbers, in nM.

Before answering, review these 7 worked examples.
CCc1c(F)cncc1-c1cc(F)c2c(c1)CCc1nnc(C)n1-2 = 11
Fc1cc2c(cc1-c1cccnc1)CCc1nncn1-2 = 244
Fc1cc(-c2cccnc2)cc2c1-n1cnnc1CC2 = 172
Cc1nnc2n1-c1cc(F)c(-c3cccnc3)cc1CC2 = 131
CCc1c(F)cncc1-c1cc2c(c(F)c1F)-n1c(C)nnc1CC2 = 41
Cc1ccncc1-c1cc(F)c2c(c1)CCc1nnc(C)n1-2 = 4.2
CC(=O)c1cncc(-c2cc(F)c3c(c2)CCc2nnc(C)n2-3)c1 = 87.6

Next up:
Request: Recorded IC50 for Cc1nnc2n1-c1c(F)cc(-c3cncc(C(F)(F)F)c3)cc1CC2 , please?
Response: 57.2

====

target: human CYP11B1 (Homo sapiens, UniProt P15538); construct: expressed in transfected cells; host or cells: V79MZh11B1 cells; assay: V79-Human-CYP11B1 cell assay, modified protocol (280,000 cells/mL); assay type: cell-based; conditions: 0.30 μl inhibitor
For each of the compounds below, state its IC50.

Before answering, review these 2 worked examples.
Cc1nnc2n1-c1cc(Cl)c(-c3cncc4ccccc34)cc1CC2 = > 10 µM
COc1c(C)cncc1-c1cc2c(cc1F)-n1c(C)nnc1CC2 = > 10 µM

Next up:
Request: Recorded IC50 for Cc1nnc2n1-c1c(Cl)cc(-c3cnccc3C(F)(F)F)cc1CC2 , please?
Response: > 30 µM
